- Tested on: ACHN renal
- experiment-description: NCI-60 one-dose screen, 48 h
- setup-conditions: 10 µM unless noted
This is part of a sample that, as a whole, favours compounds with a hit. Of some 83,000 tested, about 20% had one in any assay. Active and inactive are the calls of the source. Rule for the calls: active = growth percent below 10; inactive = the rest.
Mark one answer only. Choices: 1 for active, 0 for inactive

Solved cases (3 shown):
CCN(CC)c1ccc(\C=N/N=C(N)/C(N)=N\N=C/c2ccc(N(CC)CC)cc2)cc1
0
CCn1cc(C(=O)NNC(=S)Nc2ccc(C)cc2)c(=O)c2ccc(C)nc21
0
CCOC(=O)C1=C(c2ccccc2)N=C2SC=C(c3ccc(Cl)cc3)N2C1c1ccc(Cl)cc1 (stereo unspecified)
0

// switching to the query compound
Each compound tested received a call. Report the one for CC/C(=C(/c1ccc(Cl)cc1)c1ccc(OCCN(C)C)cc1)c1ccc(Cl)cc1 . 0

These measurements were taken from PubChem BioAssay (NCI).
